The following molecules are shown together with reported cell count values.
# assay-details: inhibitors of TNFa-induced NFkB p65 translocation, primary screen, imaging, HUVEC, MLSMR starter and 10KST1 sets (AID 438);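 further: compound added about 3h40 before a 20 min TNFalpha stimulation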
# condition-details: HUVEC TNFa-induced p65 nuclear translocation; measured here: nuclei count (cytotoxicity indicator), at 2.08 µM
property: cell count

• O=C(NC(=O)c1cccc(F)c1)OC[C@@H]1CCCN2CCCC[C@H]12 = 600
• CCOc1cccc(N2C(=O)CC(N(CCc3ccc(OC)c(OC)c3)C(=O)CC)C2=O)c1 (centres undefined) = 586
• CCOC(=O)CN1CC23C=CC(O2)C(C(=O)Nc2ccc(OCC)cc2)C3C1=O (centres undefined) = 615
• COc1cccc(-c2nc3n(n2)C(c2ccccc2Cl)C(C(N)=O)=C(C)N3)c1 (centres undefined) = 595

The values you see were collected from PubChem BioAssay.
